Numbers sourced from PubChem BioAssay (NCI).

# Tested on: A498 renal
# test: NCI-60 one-dose screen, 48 h (100 = growth as untreated, 0 = no growth, -100 = all killed)
# measurement.conditions: 10 µM unless noted
# Description: Growth inhibition of the A498 human tumor cell line is measured as a screen for anti-cancer activity. Cells are grown in 96 well plates and exposed to the test compound for 48 hours. Compounds are tested at a single concentration, which is 10^-5 M for most compounds. The reported endpoint is percent growth (GI% or GIPRCNT), where numbers from 0 - 100% represent growth inhibition, and numbers from -100% - 0 represent cell death. For example, a value of 40 represents 60% growth inhibition. […]
Compounds without any hit were thinned out: in the full panel of roughly 83,000, 20% have a hit.
result.type: growth (%)

molecule	result.type	scale.unit	obs.value
COc1ccc(/C=C/C(=O)c2ccc(S(=O)(=O)NCCNc3nc(N(C)C)nc(N4CCOCC4)n3)cc2)cc1	growth	%	89.2
Cc1ccccc1Nc1nnc(-c2c[nH]c3ccccc23)o1	growth	%	101
N#Cc1c(-c2ccc(F)cc2)nc(SCc2ccc(F)cc2)nc1N1CCNCC1	growth	%	96.5
Cc1ccc(NC(=O)N/N=C/c2c[nH]c3ccccc23)c(C)c1	growth	%	55.7
COc1ccccc1Nc1nnc(-c2c[nH]c3ccccc23)o1	growth	%	81.9
Cc1cc(=O)oc2cc(OCC(O)CNN3C(=O)c4cccc5c(N6CCN(C)CC6)ccc(c45)C3=O)ccc12 (stereo unspecified)	growth	%	122
N#Cc1cc(-c2ccnc(Nc3ccc(N4CCN(C5COC5)CC4)cc3)n2)ccc1N1CCCC1	growth	%	71.2
CCCSc1nnc(-c2c(C)nc3sccn23)o1	growth	%	92.3
COc1sc(/C=N/NC(=O)c2[nH]c3ccc(Br)cc3c2-c2ccccc2)cc1Cl	growth	%	9.37
COc1ccc(N=Nc2c(N)nn3c(N)c(C#N)c(-c4ccc(F)cc4)nc23)cc1	growth	%	155
COc1ccc2[nH]cc(-c3cc4nc(-c5cn(C)c6ncc(Br)cc56)cc(N)n4n3)c2c1	growth	%	-51

====

Listed here: items and their measured growth.
# Tested on: MDA-MB-231 breast
# test: NCI-60 one-dose screen, 48 h (100 = growth as untreated, 0 = no growth, -100 = all killed)
# measurement.conditions: 10 µM unless noted
The panel holds about 83,000 compounds, 20% with a hit somewhere; the sample as a whole holds those more often.

molecule	study.target	growth / %
COc1cc(CNC(=O)[C@]23CCC(C)(C)CC2C2=CCC4[C@@]5(C)CCC(OC(C)=O)C(C)(C)C5CC[C@@]4(C)[C@]2(C)CC3)ccc1OCc1cn(-c2ccc(Cl)cc2Cl)nn1 (stereo partly drawn)	MDA-MB-231 breast	88.8
O=C(NNC(=O)c1ccc(OCc2nc3ccc(Cl)cc3[nH]2)cc1)Nc1ccc(Cl)c(C(F)(F)F)c1	MDA-MB-231 breast	17.4
C=CCn1c(O)c(N=Nc2nc(-c3cc4ccccc4oc3=O)cs2)c2ccccc21	MDA-MB-231 breast	-24.9
COc1ccc2[nH]c(=O)c(CSc3ccccc3Nc3nccc(-c4ccc(C(F)(F)F)cc4)n3)cc2c1	MDA-MB-231 breast	31.6
COc1cc(C=O)ccc1OC(=O)c1cc(-c2ccc(C)cc2)n(-c2ccc(S(C)(=O)=O)cc2)n1	MDA-MB-231 breast	97.3
Clc1ccc(-c2nc3ccc(-c4nnc(SCc5ccccc5)o4)cc3[nH]2)cc1	MDA-MB-231 breast	-11.9
CC1=C(C(=O)Nc2ccccc2)C(c2cccc3ccccc23)n2c(nc3ccccc32)N1 (stereo not drawn)	MDA-MB-231 breast	53.8
NNc1ncnc2sc3c(c12)CCN(Cc1ccccc1)C3	MDA-MB-231 breast	40.8
CCCCNc1ccc2c3c(cccc13)C(=O)N(NCC(O)COc1ccc3c(C)cc(=O)oc3c1)C2=O (stereo not drawn)	MDA-MB-231 breast	81.4
Clc1ccc(CNc2nc(SCCN3CCOCC3)nc3c2cnn3CC(Cl)c2ccc(Br)cc2)cc1 (stereo not drawn)	MDA-MB-231 breast	44.1
OCCn1cc(-c2nc3ccc4[nH]ncc4c3c3c2CCCC3)cn1	MDA-MB-231 breast	54.9
COc1ccc2ccccc2c1/C=C1\SC(=Nc2ccc(O)cc2)NC1=O	MDA-MB-231 breast	15.1
CC(C)(C)c1cc(-c2cc(-c3ccccc3)[nH]c(=O)c2C#N)cc(C(C)(C)C)c1	MDA-MB-231 breast	-21.4
COc1ccc(N=Nc2c(N)nn3c(N)c(C#N)c(-c4ccc(F)cc4)nc23)cc1	MDA-MB-231 breast	-9.82
N#CCc1nnc(NC(=O)c2ccc(-n3c(=O)[nH]c4ccccc4c3=O)cc2)s1	MDA-MB-231 breast	95.5
COc1ccc(Nc2ncnc3sc4c(c23)CCN(Cc2ccccc2)C4)cc1	MDA-MB-231 breast	87.5
COc1ccc(-c2cc(-c3cc(C(C)C)c(O)cc3C)nn2-c2ccc(S(N)(=O)=O)cc2)cc1	MDA-MB-231 breast	27.9
O=C(c1ccc(O)cc1)C1[C@H](c2ccc(Cl)cc2)[C@@H](c2ccccc2)NC12C(=O)Nc1ccc(Br)cc12 (stereo partly drawn)	MDA-MB-231 breast	-79.4
